As shown below, each of these molecules has a reported activation value.
- EXPERIMENTAL SYSTEM: CCR2 (Homo sapiens, UniProt P41597)
- Construct: expressed in transfected cells
- Sequence (P41597 1-360 isoform P41597-2): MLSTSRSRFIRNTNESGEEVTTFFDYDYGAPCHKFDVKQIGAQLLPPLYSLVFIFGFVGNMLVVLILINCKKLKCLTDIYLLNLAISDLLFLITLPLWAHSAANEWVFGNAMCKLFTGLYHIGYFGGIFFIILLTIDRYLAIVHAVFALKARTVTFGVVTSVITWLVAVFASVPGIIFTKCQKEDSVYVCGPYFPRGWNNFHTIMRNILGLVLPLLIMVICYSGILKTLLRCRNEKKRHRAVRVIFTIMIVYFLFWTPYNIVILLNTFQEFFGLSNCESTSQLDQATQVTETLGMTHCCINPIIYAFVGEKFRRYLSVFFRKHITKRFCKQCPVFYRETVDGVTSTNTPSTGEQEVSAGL
- PROTOCOL TEXT: Figure S2a opioid peptide screen on chemokine receptors
- Type: cell-based
- Design: dose or concentration left out as unconfirmed
- RECORDED CONDITIONS: replicate 2, read-out: CCR2 activity, ctrl+ = 100

[
  {
    "MOLECULE": "NC(=O)[C@H](Cc1ccccc1)NC(=O)[C@H](Cc1c[nH]c2ccccc12)NC(=O)[C@@H]1CCCN1C(=O)[C@@H](N)Cc1ccc(O)cc1 [Endomorphin-1]",
    "EXPERIMENTAL SYSTEM": "CCR2 (Homo sapiens, UniProt P41597)",
    "MEASUREMENT UNIT": "%",
    "activation": -3.22
  },
  {
    "MOLECULE": "CC[C@H](C)[C@H](NC(=O)[C@H](CCCNC(=N)N)NC(=O)[C@H](CCCNC(=N)N)NC(=O)[C@H](CC(C)C)NC(=O)[C@H](Cc1ccccc1)NC(=O)CNC(=O)CNC(=O)[C@@H](N)Cc1ccc(O)cc1)C(=O)N[C@@H](CCCNC(=N)N)C(=O)N1CCC[C@H]1C(=O)N[C@@H](CCCCN)C(=O)N[C@@H](CC(C)C)C(=O)N[C@@H](CCCCN)C(=O)N[C@@H](Cc1c[nH]c2ccccc12)C(=O)N[C@@H](CC(=O)O)C(=O)N[C@@H](CC(N)=O)C(=O)N[C@@H](CCC(N)=O)C(=O)O [Dynorphin A]",
    "EXPERIMENTAL SYSTEM": "CCR2 (Homo sapiens, UniProt P41597)",
    "MEASUREMENT UNIT": "%",
    "activation": -2.61
  },
  {
    "MOLECULE": "C[C@H](NC(=O)CNC(=O)[C@@H](NC(=O)[C@H](Cc1ccccc1)NC(=O)CNC(=O)CNC(=O)[C@@H](N)Cc1ccccc1)[C@@H](C)O)C(=O)N[C@@H](CCCNC(=N)N)C(=O)N[C@@H](CCCCN)C(=O)N[C@@H](CO)C(=O)N[C@@H](C)C(=O)N[C@@H](CCCNC(=N)N)C(=O)N[C@@H](CCCCN)C(N)=O [Nociceptin 1-13]",
    "EXPERIMENTAL SYSTEM": "CCR2 (Homo sapiens, UniProt P41597)",
    "MEASUREMENT UNIT": "%",
    "activation": -0.93
  }
]

* * *

- EXPERIMENTAL SYSTEM: CCR9 (Homo sapiens, UniProt P51686)
- Construct: expressed in transfected cells
- Sequence (P51686 1-369): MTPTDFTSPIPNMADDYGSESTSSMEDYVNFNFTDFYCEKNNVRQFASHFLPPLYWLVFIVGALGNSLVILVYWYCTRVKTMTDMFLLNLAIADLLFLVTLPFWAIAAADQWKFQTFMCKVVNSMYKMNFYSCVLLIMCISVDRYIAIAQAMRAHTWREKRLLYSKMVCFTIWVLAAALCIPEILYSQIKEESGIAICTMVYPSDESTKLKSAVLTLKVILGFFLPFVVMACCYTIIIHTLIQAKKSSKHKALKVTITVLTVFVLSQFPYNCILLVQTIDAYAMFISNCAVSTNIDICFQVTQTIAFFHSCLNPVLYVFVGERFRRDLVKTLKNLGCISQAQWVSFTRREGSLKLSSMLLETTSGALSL
- PROTOCOL TEXT: Figure S2a opioid peptide screen on chemokine receptors
- Assay type: cell-based
- Parameters: dose or concentration left out as unconfirmed
- RECORDED CONDITIONS: replicate 2, read-out: CCR9 activity, ctrl+ = 100

[
  {
    "GIVEN SMILES": "CC(C)C[C@H](NC(=O)[C@H](Cc1ccccc1)NC(=O)CNC(=O)CNC(=O)[C@@H](N)Cc1ccc(O)cc1)C(=O)N[C@@H](CCCN=C(N)N)C(=O)N[C@@H](CCCN=C(N)N)C(=O)N[C@@H](CCC(N)=O)C(=O)N[C@@H](Cc1ccccc1)C(=O)N[C@@H](CCCCN)C(=O)N[C@H](C(=O)N[C@H](C(=O)N[C@H](C(=O)O)[C@@H](C)O)C(C)C)C(C)C",
    "EXPERIMENTAL SYSTEM": "CCR9 (Homo sapiens, UniProt P51686)",
    "activation / %": -1.3
  },
  {
    "GIVEN SMILES": "CC(C)C[C@H](NC(=O)[C@H](CCCCN)NC(=O)[C@H](CCCN=C(N)N)NC(=O)[C@H](C)NC(=O)[C@H](CO)NC(=O)[C@H](CCCCN)NC(=O)[C@H](CCCN=C(N)N)NC(=O)[C@H](C)NC(=O)CNC(=O)[C@@H](NC(=O)[C@H](Cc1ccccc1)NC(=O)CNC(=O)CNC(=O)[C@@H](N)Cc1ccccc1)[C@@H](C)O)C(=O)N[C@@H](C)C(=O)N[C@@H](CC(N)=O)C(=O)N[C@@H](CCC(N)=O)C(=O)O",
    "EXPERIMENTAL SYSTEM": "CCR9 (Homo sapiens, UniProt P51686)",
    "activation / %": 3.44
  },
  {
    "GIVEN SMILES": "CC[C@H](C)[C@H](NC(=O)[C@H](CCCNC(=N)N)NC(=O)[C@H](CCCNC(=N)N)NC(=O)[C@H](CC(C)C)NC(=O)[C@H](Cc1ccccc1)NC(=O)CNC(=O)CNC(=O)[C@@H](N)Cc1ccc(O)cc1)C(=O)N[C@@H](CCCNC(=N)N)C(=O)N1CCC[C@H]1C(=O)N[C@@H](CCCCN)C(=O)N[C@@H](CC(C)C)C(=O)N[C@@H](CCCCN)C(=O)O",
    "EXPERIMENTAL SYSTEM": "CCR9 (Homo sapiens, UniProt P51686)",
    "activation / %": -1.58
  }
]

* * *

- EXPERIMENTAL SYSTEM: CCR5 (Homo sapiens)
- Construct: expressed in transfected cells
- Sequence (P51681 whole entry): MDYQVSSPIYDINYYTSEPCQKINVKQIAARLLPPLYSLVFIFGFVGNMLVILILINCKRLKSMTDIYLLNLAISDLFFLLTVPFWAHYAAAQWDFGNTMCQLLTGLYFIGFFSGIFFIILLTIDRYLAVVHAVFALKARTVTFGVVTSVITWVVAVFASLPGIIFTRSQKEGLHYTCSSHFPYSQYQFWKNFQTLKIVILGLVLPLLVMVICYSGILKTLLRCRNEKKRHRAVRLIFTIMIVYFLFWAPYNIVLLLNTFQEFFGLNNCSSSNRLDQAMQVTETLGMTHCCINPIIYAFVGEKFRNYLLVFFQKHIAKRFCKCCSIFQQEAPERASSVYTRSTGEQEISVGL
- PROTOCOL TEXT: Figure S2a opioid peptide screen on chemokine receptors
- Assay type: cell-based
- Design: dose or concentration left out as unconfirmed
- RECORDED CONDITIONS: replicate 2, read-out: CCR5 activity, ctrl+ = 100
Starred links: 1 amine or outer side, 2 acyl side, 3 side chain; linkers in the order of their positions; H or OH if unused. Non-standard residues stand in square brackets, D forms with d. Residues, ends and D or L forms follow the SMILES beside them. X1 = N[C@@H](Cc1ccccc1)CN(CC(=O)[*:2])[*:1]

[
  {
    "COMPOUND": "C[C@H](NC(=O)CNC(=O)[C@@H](NC(=O)[C@H](Cc1ccccc1)NC(=O)CNC(=O)CNC[C@@H](N)Cc1ccccc1)[C@@H](C)O)C(=O)N[C@@H](CCCNC(=N)N)C(=O)N[C@@H](CCCCN)C(=O)N[C@@H](CO)C(=O)N[C@@H](C)C(=O)N[C@@H](CCCNC(=N)N)C(=O)N[C@@H](CCCCN)C(N)=O [FG Nociceptin 1-13] (H-[X1]GFTGARKSARK-NH2)",
    "activation": "0.224%"
  },
  {
    "COMPOUND": "CSCC[C@H](NC(=O)[C@H](Cc1ccccc1)NC(=O)CNC(=O)CNC(=O)[C@@H](N)Cc1ccc(O)cc1)C(=O)N[C@@H](CCCNC(=N)N)C(=O)N[C@@H](CCCNC(=N)N)C(=O)N[C@H](C(N)=O)C(C)C",
    "activation": "-0.467%"
  },
  {
    "COMPOUND": "CC[C@H](C)[C@H](NC(=O)[C@H](CCCNC(=N)N)NC(=O)[C@H](CCCNC(=N)N)NC(=O)[C@H](CC(C)C)NC(=O)[C@H](Cc1ccccc1)NC(=O)CNC(=O)CNC(=O)[C@@H](N)Cc1ccc(O)cc1)C(=O)N[C@@H](CCCNC(=N)N)C(=O)N1CCC[C@H]1C(=O)N[C@@H](CCCCN)C(=O)N[C@@H](CC(C)C)C(=O)N[C@@H](CCCCN)C(=O)O",
    "activation": "-1.44%"
  },
  {
    "COMPOUND": "NC(=O)[C@H](Cc1ccccc1)NC(=O)[C@H](Cc1c[nH]c2ccccc12)NC(=O)[C@@H]1CCCN1C(=O)[C@@H](N)Cc1ccc(O)cc1 [Endomorphin-1]",
    "activation": "-0.866%"
  }
]
